- tested.on: furin, P09958
- Sequence (P09958 whole entry): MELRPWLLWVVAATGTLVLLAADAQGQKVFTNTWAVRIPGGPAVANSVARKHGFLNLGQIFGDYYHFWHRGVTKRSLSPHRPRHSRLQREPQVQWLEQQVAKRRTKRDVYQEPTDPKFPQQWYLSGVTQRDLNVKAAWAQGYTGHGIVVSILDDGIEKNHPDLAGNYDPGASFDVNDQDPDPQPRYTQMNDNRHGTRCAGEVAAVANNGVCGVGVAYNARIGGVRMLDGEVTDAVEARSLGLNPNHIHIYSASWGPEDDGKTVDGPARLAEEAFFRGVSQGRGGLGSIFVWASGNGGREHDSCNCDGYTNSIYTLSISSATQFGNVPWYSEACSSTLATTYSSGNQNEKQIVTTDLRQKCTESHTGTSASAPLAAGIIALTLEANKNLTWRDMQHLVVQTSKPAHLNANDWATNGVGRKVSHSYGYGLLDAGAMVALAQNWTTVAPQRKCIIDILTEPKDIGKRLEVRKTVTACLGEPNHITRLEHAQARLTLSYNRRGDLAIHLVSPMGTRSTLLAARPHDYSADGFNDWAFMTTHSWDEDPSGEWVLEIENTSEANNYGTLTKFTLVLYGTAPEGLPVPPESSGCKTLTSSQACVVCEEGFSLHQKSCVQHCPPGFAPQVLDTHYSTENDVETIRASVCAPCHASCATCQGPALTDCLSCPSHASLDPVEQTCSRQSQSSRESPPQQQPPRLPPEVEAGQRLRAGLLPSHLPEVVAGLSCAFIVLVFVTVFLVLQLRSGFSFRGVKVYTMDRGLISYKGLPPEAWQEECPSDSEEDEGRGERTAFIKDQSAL
- test.summary: furin cleavage Z-score vs untreated control; higher = more cleavage, active = 3.5 or more, inactive = 1 or less, 8 variable residues between constant flanks;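 note: purified furin at 1:10 enzyme:substrate in 50 mM HEPES pH 7.5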
- assay.conditions: 15 min
Some of the results follow. How many sequences the whole screen found active is unknown.
Binning scheme for furin cleavage Z-score: low (below -0.8), middle (-0.8 to below 2), high (2 or more)

Below, 5 sequences whose answers are already recorded.
| seq | group |
| --- | --- |
| CAKNIRRGRSAGNASASA [FS-342] | high |
| CANIIMFAPTAGNASASA [HC1576] | middle |
| CARRRRSMDPAGNASASA [FS-3067] | high |
| CAGMLRQRRPAGNASASA [FS-1001] | low |
| CARRTRFISLAGNASASA [FS-2601] | middle |

### Prompt Which furin cleavage Z-score category applies to CAWCLWWLQYAGNASASA [HC581] here?
### Response middle

### Prompt Which furin cleavage Z-score category applies to CALVSFLVFFAGNASASA [HC543] here?
### Response low
